Quick reference: Trypane blue of the listed items.
System: PMHL
MEASUREMENT DESCRIPTION: Nonspecific cytotoxicity, trypane blue exclusion test
Format: cell-based, human
Protocol: Nonspecific cytotoxicity of the test compounds on PMHL was assessed by […] blue exclusion test.
MEASURED QUANTITY: Trypane blue

>>> print(df.to_string())
                                   compound  measured
0  CN1CCN(CCCN2c3ccccc3Sc3ccc(C(F)(F)F)cc32)CC1    100 µM
1          CN(C)CCCN1c2ccccc2Sc2ccc(Cl)cc21     30 µM
2  CN[C@@H]1C[C@H]2O[C@@](C)([C@@H]1OC)n1c3ccccc3c3c4c(c5c6ccccc6n2c5c31)C(=O)NC4      3 µM
3       CCN1CCc2[nH]c3cc(F)c4scc(C)c4c3c2C1    300 µM
4       NCCCCCCNS(=O)(=O)c1cccc2c(Cl)cccc12     15 µM
5  CC(CN1c2ccccc2Sc2ccccc21)N(C)C (stereo not drawn)    100 µM
